Attribution: PubChem BioAssay AID248

# System: L1210 leukemia ip in BDF1 mice, survival T/C
# experiment_notes: NCI In Vivo Anticancer Drug Screen. Data for tumor model L1210 Leukemia (intraperitoneal) in B6D2F1 (BDF1) mice
# particulars: endpoint: mean survival time; dose: 400.0 mg/kg/injection; schedule: Q01DX009 (ip); vehicle: Klucel (hydroxypropylcellulose) (HPC); higher = longer survival
Toxic doses and inconclusive results are not listed.
observed_property: T/C

Consider the worked cases shown below.
compound	data_value
BrCCCCCCCCCCC1(c2ccccc2)OCCO1	93 % of control
CC1(C#N)c2ccccc2C=CN1C(=O)c1ccccc1 (stereo not drawn)	92 % of control
O=c1ccn(Cc2cccc(OCCCc3ccccc3)c2)c(=O)[nH]1	97 % of control

Value wanted: T/C (L1210 leukemia ip in BDF1 mice, survival T/C) of entry CC1=CC(C)(C)NC(=S)N1c1ccccc1
87 % of control

Value wanted: T/C (L1210 leukemia ip in BDF1 mice, survival T/C) of entry Oc1ccc2ccc3[nH]cnc3c2c1
97 % of control

Value wanted: T/C (L1210 leukemia ip in BDF1 mice, survival T/C) of entry CCc1ccc(NC(=O)Nc2ccccc2C)cc1
100 % of control

Value wanted: T/C (L1210 leukemia ip in BDF1 mice, survival T/C) of entry O=C(Nc1ccccc1F)Nc1cc([N+](=O)[O-])ccc1Cl
87 % of control

Value wanted: T/C (L1210 leukemia ip in BDF1 mice, survival T/C) of entry CP(=S)(c1ccccc1)P(C)(=S)c1ccccc1 (stereo not drawn)
94 % of control

Value wanted: T/C (L1210 leukemia ip in BDF1 mice, survival T/C) of entry Cc1cc(C)c(NC(=S)NC(=O)c2cccc3ccccc23)c(C)c1
95 % of control
